Below, each entry is listed alongside its reported pIC50.
targetOrTestSystem: Prolyl endopeptidase FAP (Mus musculus)
assayExplanation: Inhibition of mouse recombinant FAP expressed in HEK293 cells assessed as pNA release from Ala-Pro-p-nitroanilide pre-incubated with enzyme for 15 mins prior to substrate addition by […]
pIC50: −log10 of the molar value.

Challenge: What pIC50 value was documented for this compound, [N-]=[N+]=N[C@@H]1C[C@@H](C(=O)N2CCCC2)N(C(=O)CCCc2ccccc2)C1 ?
Response given: < 4.00

Challenge: Check [N-]=[N+]=N[C@H]1C[C@@H](C(=O)N2CCCC2)N(C(=O)OCc2ccccc2)C1 too.
Response given: < 4.00

Challenge: Check O=C([C@@H]1C[C@H](n2cc(-c3ccc(F)cc3F)nn2)CN1C(=O)CCCc1ccccc1)N1CCCC1 too.
Response given: < 5.30

Challenge: Check O=C([C@@H]1C[C@H](n2cc(CN3CCOCC3)nn2)CN1C(=O)CCCc1ccccc1)N1CCCC1 too.
Response given: < 4.00

Challenge: Check [N-]=[N+]=N[C@H]1C[C@@H](C(=O)N2CCCC2)N(C(=O)CCCc2ccccc2)C1 too.
Response given: < 4.00

Continuing:
Challenge: What pIC50 value was documented for this compound, O=C([C@@H]1C[C@H](n2cc(-c3ccc(F)c(F)c3)nn2)CN1C(=O)CCCc1ccccc1)N1CCCC1 ?
Response given: < 5.30

Challenge: Check O=C([C@@H]1C[C@H](n2cc(CN3CCNCC3)nn2)CN1C(=O)CCCc1ccccc1)N1CCCC1 too.
Response given: < 4.00

====

Consider the following IC50 values measured on Prolyl endopeptidase (Sus scrofa, UniProt P23687).
Sequence (P23687 whole entry): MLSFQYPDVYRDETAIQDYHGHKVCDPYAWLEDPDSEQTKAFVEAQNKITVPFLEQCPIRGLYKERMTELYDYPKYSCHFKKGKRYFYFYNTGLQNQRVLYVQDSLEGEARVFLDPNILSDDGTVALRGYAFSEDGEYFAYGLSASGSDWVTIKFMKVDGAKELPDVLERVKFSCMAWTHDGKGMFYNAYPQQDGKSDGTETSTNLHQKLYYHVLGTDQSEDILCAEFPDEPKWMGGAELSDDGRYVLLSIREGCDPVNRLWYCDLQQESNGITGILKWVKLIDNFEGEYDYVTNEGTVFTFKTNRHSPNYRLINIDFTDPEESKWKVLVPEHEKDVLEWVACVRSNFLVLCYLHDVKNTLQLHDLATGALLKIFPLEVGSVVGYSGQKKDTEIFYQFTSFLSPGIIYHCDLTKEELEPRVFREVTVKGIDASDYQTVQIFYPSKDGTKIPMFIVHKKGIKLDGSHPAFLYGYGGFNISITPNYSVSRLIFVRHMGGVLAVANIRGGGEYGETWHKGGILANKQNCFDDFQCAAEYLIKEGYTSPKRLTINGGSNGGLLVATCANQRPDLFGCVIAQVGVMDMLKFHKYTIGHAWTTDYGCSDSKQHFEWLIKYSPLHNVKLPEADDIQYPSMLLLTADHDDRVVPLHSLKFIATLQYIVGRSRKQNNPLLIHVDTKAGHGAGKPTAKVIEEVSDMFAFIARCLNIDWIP
// units = nM; emit number, no label

Challenge: What IC50 value was documented for this compound, Cn1cnc(-c2cn([C@H]3C[C@@H](C(=O)N4CCCC4)N(C(=O)CCCc4ccccc4)C3)nn2)c1 ?
Response given: 90

Challenge: Check O=C([C@@H]1C[C@H](n2cc(-c3ccccn3)nn2)CN1C(=O)CCCc1ccccc1)N1CCCC1 too.
Response given: 69

Challenge: Check O=C([C@@H]1C[C@H](n2cc(-c3ccc(F)cc3F)nn2)CN1C(=O)CCCc1ccccc1)N1CCCC1 too.
Response given: 24

Continuing:
Challenge: What IC50 value was documented for this compound, O=C([C@@H]1C[C@H](n2cc(-c3ccccc3)nn2)CN1C(=O)CCCc1ccccc1)N1CCCC1 ?
Response given: 170

====

targetOrTestSystem: Prolyl endopeptidase FAP (Mus musculus)
Sequence (P97321 whole entry): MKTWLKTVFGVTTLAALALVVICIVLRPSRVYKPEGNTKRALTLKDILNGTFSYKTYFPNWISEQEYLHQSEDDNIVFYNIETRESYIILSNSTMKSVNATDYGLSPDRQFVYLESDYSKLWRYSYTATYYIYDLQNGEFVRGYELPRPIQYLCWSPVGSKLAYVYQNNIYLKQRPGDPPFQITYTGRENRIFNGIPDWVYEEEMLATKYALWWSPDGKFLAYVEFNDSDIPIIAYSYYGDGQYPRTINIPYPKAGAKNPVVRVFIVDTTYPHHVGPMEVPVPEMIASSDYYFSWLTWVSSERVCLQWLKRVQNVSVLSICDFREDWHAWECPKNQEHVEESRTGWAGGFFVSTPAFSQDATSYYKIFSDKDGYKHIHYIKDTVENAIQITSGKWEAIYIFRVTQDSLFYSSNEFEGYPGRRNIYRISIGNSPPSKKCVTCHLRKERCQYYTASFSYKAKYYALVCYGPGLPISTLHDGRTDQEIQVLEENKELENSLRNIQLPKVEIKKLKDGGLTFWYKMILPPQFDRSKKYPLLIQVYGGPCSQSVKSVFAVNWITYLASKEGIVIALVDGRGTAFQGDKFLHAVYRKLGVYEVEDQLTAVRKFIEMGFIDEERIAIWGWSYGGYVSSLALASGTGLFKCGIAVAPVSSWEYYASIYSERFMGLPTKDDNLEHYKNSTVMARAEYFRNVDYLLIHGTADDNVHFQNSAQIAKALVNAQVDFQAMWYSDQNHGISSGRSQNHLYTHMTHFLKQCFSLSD
assayExplanation: Inhibition of mouse recombinant FAP expressed in HEK293 cells assessed as pNA release from Ala-Pro-p-nitroanilide pre-incubated with enzyme for 15 mins prior to substrate addition by […]
pIC50: −log10 of the molar value.
Below, each entry is listed alongside its reported pIC50.

Study these solved cases before continuing.
Challenge: What pIC50 value was documented for this molecule, CC(C)(C)OC(=O)NCc1cn([C@@H]2C[C@@H](C(=O)N3CCCC3)N(C(=O)CCCc3ccccc3)C2)nn1 ?
Response given: < 4.00

Challenge: Check N#C[C@@H]1CCCN1C(=O)[C@@H]1CCCN1C(=O)CCCc1ccccc1 too.
Response given: < 5.00

Challenge: Check CC(C)(C)OC(=O)N1CCN(Cc2cn([C@H]3C[C@@H](C(=O)N4CCCC4)N(C(=O)CCCc4ccccc4)C3)nn2)CC1 too.
Response given: < 4.00

Challenge: Check O=C([C@@H]1C[C@H](n2cc(-c3ccccn3)nn2)CN1C(=O)OCc1ccccc1)N1CCCC1 too.
Response given: < 4.00

Continuing:
Challenge: What pIC50 value was documented for this molecule, O=C([C@@H]1C[C@H](n2cc(-c3ccccc3Cl)nn2)CN1C(=O)CCCc1ccccc1)N1CCCC1 ?
Response given: < 5.30

Challenge: Check O=C([C@@H]1C[C@H](n2ccnn2)CN1C(=O)OCc1ccccc1)N1CCCC1 too.
Response given: < 4.00

Challenge: Check O=C([C@@H]1CCCN1C(=O)OCc1ccccc1)N1CCCC1 too.
Response given: < 4.00

Challenge: Check O=C([C@@H]1C[C@H](n2cc(C3CCCCC3)nn2)CN1C(=O)CCCc1ccccc1)N1CCCC1 too.
Response given: < 5.30

Challenge: Check O=C([C@@H]1CCCN1C(=O)CCCc1ccccc1)N1CCCC1 too.
Response given: < 4.00

Challenge: Check NCc1cn([C@H]2C[C@@H](C(=O)N3CCCC3)N(C(=O)CCCc3ccccc3)C2)nn1 too.
Response given: < 4.00

Challenge: Check C[Si](C)(C)c1cn([C@H]2C[C@@H](C(=O)N3CCCC3)N(C(=O)OCc3ccccc3)C2)nn1 too.
Response given: < 4.00
